This collection of values is drawn from paper PMC8650031.

I'd be grateful if you could share measured IC50 for these entries.
# Tested on: gastric adenocarcinoma AGS cells
# measurementProtocol: MTT cell viability assay, AGS cells
# Format: cell-based, human
# assayContext: Homo sapiens, 72 h, MTT
Quick note: give the figure in µM, leave out the unit.

Please look up its IC50: O=c1cc(-c2ccc(O)cc2)oc2cc(O)cc(O)c12 [apigenin, reference compound]
23.4

Recorded IC50 for `O=c1c(O)c(-c2ccc(O)c(O)c2)oc2cc(O)cc(O)c12` , please?
28.4

What does the data say about its IC50? Entry: COc1ccc(-c2oc3cc(O)c(OC)c(O)c3c(=O)c2OC)cc1 [santin]
13.9

Recorded IC50 for `COc1cc2oc(-c3ccc(O)cc3)cc(=O)c2c(O)c1OC` , please?
17.1

Any idea what its IC50 is? The compound is `COc1ccc(-c2oc3cc(O)cc(O)c3c(=O)c2OC)cc1`
44.5

====

For each entry below, report its pIC50 value.
# Tested on: gastric adenocarcinoma AGS cells
# measurementProtocol: MTT cell viability assay, AGS cells
# Assay type: cell-based, human
# assayContext: Homo sapiens, 24 h, MTT
pIC50: −log10 of the molar value.

What measured pIC50 goes with COc1ccc(-c2oc3cc(O)c(OC)c(O)c3c(=O)c2OC)cc1 [santin] ?
< 4.30

What does the data say about its pIC50? Entry: O=c1cc(-c2ccc(O)cc2)oc2cc(O)cc(O)c12 [apigenin, reference compound]
< 4.30

====

# Tested on: HepG2 cells
# measurementProtocol: [3H]-thymidine incorporation (DNA biosynthesis), HepG2
# Assay type: cell-based, human
# assayContext: HepG2, 50 μM, 48 h
endpointLabel: reduction of [3H]-thymidine incorporation (%)
Please respond with the number in % and leave the unit unwritten.

Query the reported reduction of [3H]-thymidine incorporation for HepG2 cells; item: O=c1cc(-c2ccc(O)cc2)oc2cc(O)cc(O)c12 [apigenin, reference compound]
85.4

Please provide the recorded reduction of [3H]-thymidine incorporation for COc1ccc(-c2oc3cc(O)c(OC)c(O)c3c(=O)c2OC)cc1 [santin] , tested on HepG2 cells.
74.9

Quick check: reduction of [3H]-thymidine incorporation on HepG2 cells, item `COc1cc2oc(-c3ccc(O)cc3)cc(=O)c2c(O)c1OC` ?
53.6

Give the reported reduction of [3H]-thymidine incorporation for `COc1ccc(-c2oc3cc(O)cc(O)c3c(=O)c2OC)cc1` (system: HepG2 cells).
85.2

====

Exercise: for every item that follows, state its recorded pIC50.
# Test system: gastric adenocarcinoma AGS cells
# measurementProtocol: MTT cell viability assay, AGS cells
# Assay type: cell-based, human
# assayContext: Homo sapiens, 48 h, MTT
Expect pIC50 as a plain number equal to -log10 of the molar concentration.

Endpoint output: pIC50 of COc1ccc(-c2oc3cc(O)c(OC)c(O)c3c(=O)c2OC)cc1 [santin] . Value?
4.77

Requested read-out: pIC50. Entry: COc1cc2oc(-c3ccc(O)cc3)cc(=O)c2c(O)c1OC [cirsimaritin]
4.50

Fill blank: measured pIC50 of the compound O=c1cc(-c2ccc(O)cc2)oc2cc(O)cc(O)c12 [apigenin, reference compound] is ____.
4.74

I am curious: what pIC50 value has been reported for COc1ccc(-c2oc3cc(O)cc(O)c3c(=O)c2OC)cc1 [ermanin] ?
4.31
